Assay: Hydrophobic interaction chromatography (HIC) HPLC
Assay type: physicochemical
Conditions: higher retention = more hydrophobic
molecules and their reported Retention time by HIC-HPLC
# number only, unit min dropped from output

molecule="AB1370035: anti-FRα fully human IgG1 antibody; VH SEQ ID NO: 41, VL SEQ ID NO: 42 (antibody, V domains shown) VH: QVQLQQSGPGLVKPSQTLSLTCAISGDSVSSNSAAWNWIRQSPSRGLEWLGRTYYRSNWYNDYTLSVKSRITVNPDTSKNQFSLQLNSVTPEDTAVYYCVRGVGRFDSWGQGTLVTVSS VL: DIQMTQSPSTLSASVGDRVIITCRASQSISSWLAWYQQKPGKAPKLLIYKASSLESGVPSRFSGSGSGTEFTLTITSLQPDDFASYYCQEYKTYSIFTFGPGTKVDIK" attribute_measured="Retention time by HIC-HPLC" value_observed=2.25
molecule="AB1370026: anti-FRα fully human IgG1 antibody; VH SEQ ID NO: 39, VL SEQ ID NO: 40 (antibody, V domains shown) VH: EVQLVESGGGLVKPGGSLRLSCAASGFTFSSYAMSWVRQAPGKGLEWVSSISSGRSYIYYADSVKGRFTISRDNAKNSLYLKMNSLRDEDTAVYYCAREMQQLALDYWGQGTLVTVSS VL: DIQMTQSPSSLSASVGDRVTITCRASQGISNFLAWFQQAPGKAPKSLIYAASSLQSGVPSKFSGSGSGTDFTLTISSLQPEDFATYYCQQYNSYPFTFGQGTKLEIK" attribute_measured="Retention time by HIC-HPLC" value_observed=1.96

--- query ---
// Retention time by HIC-HPLC value for AB1370095: anti-FRα fully human IgG1 antibody; VH SEQ ID NO: 45, VL SEQ ID NO: 46 (antibody, V domains shown) VH: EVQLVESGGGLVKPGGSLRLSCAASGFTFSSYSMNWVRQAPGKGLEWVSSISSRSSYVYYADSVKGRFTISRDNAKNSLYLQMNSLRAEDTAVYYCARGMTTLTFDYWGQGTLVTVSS VL: DIQMTQSPSSLSASVGDRVTITCRASQGISSFLAWFQQKPGKAPKSLIYAASSLQSGVPSKFSGSGSGTDFTLTISSLQPEDFATYYCQQYNSYPLTFGGGTKVEIK : 2.12
